Hey, just so you know, these numbers are from ChEMBL document CHEMBL1136628.

TARGET_ENTITY: UniProt Q02110
Sequence (Q02110 whole entry): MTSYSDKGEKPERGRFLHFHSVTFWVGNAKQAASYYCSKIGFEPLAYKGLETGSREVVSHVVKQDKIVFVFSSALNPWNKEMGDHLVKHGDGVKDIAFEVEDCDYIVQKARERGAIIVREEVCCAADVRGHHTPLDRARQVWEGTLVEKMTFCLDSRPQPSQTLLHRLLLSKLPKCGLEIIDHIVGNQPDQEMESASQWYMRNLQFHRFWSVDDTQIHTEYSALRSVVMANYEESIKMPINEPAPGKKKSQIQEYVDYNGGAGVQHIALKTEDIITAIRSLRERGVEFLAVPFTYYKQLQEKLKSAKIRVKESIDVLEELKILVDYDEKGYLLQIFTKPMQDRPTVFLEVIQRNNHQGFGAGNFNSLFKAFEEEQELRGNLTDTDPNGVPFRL
PARAMETER: IC50 (µM)
Response body: numeric value in µM, unit text excluded.

Notebook: CCOC(=O)C1CC(=O)C(C(=O)C2CC2)=C(NC(=O)C2CC2)C1 (stereo unspecified) , IC50 read as 10
